Origin of values: the MegaScale stability set (Tsuboyama et al. 2023)

B1: HEEH_KT_rd6_0007 (parent)
chain: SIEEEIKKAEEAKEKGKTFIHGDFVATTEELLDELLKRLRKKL

# Variants of: B1
# Assay Protocol: folding stability dG (cDNA display proteolysis); higher = more stable
# Condition: PBS, room temperature
Quantity: folding stability dG

Some variants with recorded folding stability dG:
[[record]]
mut = "T28V"
quantity = "folding stability dG"
reported_value = "1.17 kcal/mol"

[[record]]
mut = "L35Q"
quantity = "folding stability dG"
reported_value = "0.486 kcal/mol"

[[record]]
mut = "E30D"
quantity = "folding stability dG"
reported_value = "1.17 kcal/mol"

[[record]]
mut = "E4V"
quantity = "folding stability dG"
reported_value = "0.909 kcal/mol"

[[record]]
mut = "E14W"
quantity = "folding stability dG"
reported_value = "1.37 kcal/mol"

[[record]]
mut = "T28I"
quantity = "folding stability dG"
reported_value = "1.31 kcal/mol"


Please state folding stability dG for every variant in the list that follows.
1. G22D
2. V25L
3. T27H
4. K8F

0.958 kcal/mol
1.11 kcal/mol
1.41 kcal/mol
0.758 kcal/mol

Respectfully, I request folding stability dG for each entry included below.
1. T18S
2. F19L
3. E14A
4. L32R
5. K37C
6. K37N
7. V25P
8. S1Y

["1.21 kcal/mol", "0.751 kcal/mol", "1.73 kcal/mol", "0.281 kcal/mol", "2.06 kcal/mol", "1.17 kcal/mol", "0.68 kcal/mol", "1.36 kcal/mol"]
